Answer each item with its documented Remaining activity of MAO-B (%).
molecular target: human MAO-B enzyme (Homo sapiens (Human)); test: Screening of MAO-B activity inhibition (Amplex Red monoamine oxidase assay kit, benzylamine substrate); assay type: biochemical; settings: 10 uM of the synthesized compound, pargyline-corrected
Sequence (P27338 whole entry): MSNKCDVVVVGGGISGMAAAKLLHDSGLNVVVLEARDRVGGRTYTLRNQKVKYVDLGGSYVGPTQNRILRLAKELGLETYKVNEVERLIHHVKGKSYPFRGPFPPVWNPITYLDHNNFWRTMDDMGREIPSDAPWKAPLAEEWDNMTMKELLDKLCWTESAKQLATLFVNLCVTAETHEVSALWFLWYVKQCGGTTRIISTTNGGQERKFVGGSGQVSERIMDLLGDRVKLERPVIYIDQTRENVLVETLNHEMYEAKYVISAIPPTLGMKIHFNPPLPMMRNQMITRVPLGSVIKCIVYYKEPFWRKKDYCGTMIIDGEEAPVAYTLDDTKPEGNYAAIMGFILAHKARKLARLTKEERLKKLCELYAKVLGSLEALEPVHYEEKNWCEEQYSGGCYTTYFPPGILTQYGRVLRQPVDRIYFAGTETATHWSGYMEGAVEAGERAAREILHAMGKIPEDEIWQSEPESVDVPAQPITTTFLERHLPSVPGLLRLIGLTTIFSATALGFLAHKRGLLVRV
Give just the numeric value; % need not be written.

Fill in the blank: the reported Remaining activity of MAO-B (%) of `Clc1cccc(-c2nc3ccc(NCc4ccccc4)nc3o2)c1` is ____. 55.4

// Remaining activity of MAO-B (%) lookup, key: `Brc1ccc(-c2nc3ccc(N4CCCCC4)nc3o2)cc1` 28.6

Tell me the measured Remaining activity of MAO-B (%) of `CNc1ccc2nc(-c3ccc(C)cc3)oc2n1` , please. 45.8

Give its Remaining activity of MAO-B (%) value. Item: `Brc1ccc(-c2nc3ccc(N4CCCC4)nc3o2)cc1` 33.5

Consider the compound shown here: `Clc1cccc(-c2nc3ccc(NC4CCCCC4)nc3o2)c1` What is its recorded Remaining activity of MAO-B (%)? 39.3

Give the measured Remaining activity of MAO-B (%) of `Fc1cccc(-c2nc3ccc(NCc4ccccc4)nc3o2)c1` . 51.9

For the compound `Fc1ccc(-c2nc3ccc(N4CCCCC4)nc3o2)cc1` , what Remaining activity of MAO-B (%) is on record? 26.5

If you can, please state the reported Remaining activity of MAO-B (%) value of `CN(Cc1ccccc1)c1ccc2nc(-c3ccc(C#N)cc3)oc2n1` . 108.8

What does the data say about its Remaining activity of MAO-B (%)? Entry: `Clc1ccccc1-c1nc2ccc(N3CCCC3)nc2o1` 7.7

What does the data say about its Remaining activity of MAO-B (%)? Entry: `c1ccc(CNc2ccc3nc(-c4ccccc4)sc3n2)cc1` 60.8
